Item-by-item account of IC50
- assay.name: Cytotoxicity against Pgp deficient human LCC6 cells after 72 hrs by sulforhodamine B test
- Type: functional, cell-based
- experimental.context: C6, 72 h
Record the value in nM, omitting the unit from your answer.

test.smiles | unit.name | IC50
CCC(=O)O[C@H]1C(=O)[C@@]2(C)[C@H]([C@H](OC(=O)c3ccccc3)[C@]3(O)C[C@H](OC(=O)[C@H](O)[C@H](C=C(C)C)NC(=O)OC4CCCCC4)C(C)=C1C3(C)C)[C@]1(OC(C)=O)CO[C@@H]1C[C@@H]2O | nM | 1.2

// lookup IC50 for CCC(=O)O[C@H]1C(=O)[C@@]2(C)[C@H]([C@H](OC(=O)c3cccc(F)c3)[C@]3(O)C[C@H](OC(=O)[C@H](O)[C@H](CC(C)C)NC(=O)OC(C)(C)C)C(C)=C1C3(C)C)[C@]1(OC(C)=O)CO[C@@H]1C[C@@H]2O
0.4

# IC50 lookup, item CC(=O)O[C@@]12CO[C@@H]1C[C@H](O)[C@@]1(C)C(=O)[C@H](OC(=O)c3ccc4ccccc4c3)C3=C(C)[C@@H](OC(=O)[C@H](O)[C@H](C=C(C)C)NC(=O)OC(C)(C)C)C[C@@](O)([C@@H](OC(=O)c4ccccc4)[C@H]21)C3(C)C
6.3

Give the measured IC50 of C=CC[C@H](NC(=O)OC(C)(C)C)[C@@H](O)C(=O)O[C@H]1C[C@@]2(O)[C@@H](OC(=O)c3cccc(OC)c3)[C@@H]3[C@]4(OC(C)=O)CO[C@@H]4C[C@H](O)[C@@]3(C)C(=O)[C@H](OC(=O)CC)C(=C1C)C2(C)C .
1.2
